# System: CAF1 mice, leiomyosarcoma No.2 ip, survival T/C%
# Method summary: NCI In Vivo Anticancer Drug Screen. Data for tumor model Leiomyosarcoma (No. 2) (intraperitoneal) in CAF1 mice
# Applied conditions: endpoint: mean survival time; dose: 5.0 mg/kg/injection; schedule: Q01DX010 (ip); vehicle: saline
Toxic doses and inconclusive results are not listed. Rule for the calls: active = survival T/C of 150% or more; inactive = T/C below 125% in these data.
Tick one outcome: T (active), F (inactive)

Nc1nc(=S)c2[nH]cnc2[nH]1 : F
O=c1[nH]c(=O)n(C2CC(O)C(CO)O2)cc1F (stereo not given) : F
O=c1[nH]cc(F)c(=O)[nH]1 : T
O=C(O)c1[nH]c(=O)[nH]c(=O)c1F : F

Now turn to the next compound.
Could you kindly confirm the outcome this assay logged for "Oc1cc(CN(CCCl)CCCl)c(O)cc1CN(CCCl)CCCl" ?
F
